System: COLO 205 colon
Assay: NCI tumour cell line growth inhibition, 48 h
measured.endpoint: TGI

Q: TGI for C=Cc1cc(OC)c2c(c1)c(=O)oc1c2cc(OC)c2c(O)ccc(C3OC(C(C)O)C(O)C3O)c21 (centres undefined) ?
Result: 0.102 µM

Q: And what about the molecule O=C(O)c1cccc(S(=O)(=O)NN2C(=O)CSC2c2c(O)ccc3ccccc23)c1 (centres undefined) ?
Result: > 100 µM

Q: Another molecule to look at: CCOC(=O)Cc1cc(=O)[nH]c(-n2[nH]c(C)c(CCO)c2=O)n1
Result: > 100 µM

Q: Likewise for COc1ccc(/C=C(/c2ccc(OC)cc2)c2c(Cl)cc(Cl)c(/C(=C\c3ccc(OC)cc3)c3ccc(OC)cc3)c2N=Nc2ccccc2)cc1 ?
Result: > 100 µM

Q: Lookup CC(C)(C)CC(C)(C)NCC(O)COc1ccc(C(C)(C)c2ccc(OCC(O)CNC(C)(C)CC(C)(C)C)cc2)cc1 (centres undefined)
Result: 1.47 µM

Q: Further, for CC(C)N1[C@@H]2CCCC[C@H]2N(C(C)C)[P+]1=O ?
Result: > 100 µM

Q: Query Cc1nc(-n2nc(-c3ccccc3)cc2-c2ccccc2)sc1C(=O)CC(=O)C(=O)Nc1ccc(O)cc1 next
Result: > 100 µM

Q: Then this molecule: CSc1nc(-c2ccccc2)nc(=[N+]2CCOCC2)s1
Result: 98.7 µM

Q: Please give the result for N/C(CC(=O)NOC(=O)c1ccccc1)=N/OC(=O)c1ccccc1 too.
Result: > 100 µM

* * *

System: UACC-62 melanoma
Experiment: NCI tumour cell line growth inhibition, 48 h
measured.endpoint: TGI

Q: What TGI value was documented for this molecule, CNC(=O)c1cc(-c2ccc(F)cc2)cc(-c2ccc(S(=O)(=O)N3CCCC3)cc2)c1N ?
Result: > 25 µM

Q: Lookup COC(=O)C#CC(N)=O
Result: > 100 µM

Q: Follow-up item: O=C1C(=Cc2ccc(F)cc2)C(=O)c2ccccc21
Result: > 100 µM

Q: Here is the next molecule: N=C(N)c1ccc(-c2ccc(-c3ccc(Cl)cc3Cl)s2)nc1
Result: 3.65 µM

Q: And C=C1CC(O)C2C(=C)C(=O)OC2C2C(C)C(=O)CC12 (stereo not given) ?
Result: 29.1 µM

Q: Cool, now Cc1cc(OCc2nnc3n2N=C(c2cc(F)c(Cl)cc2Cl)/C(=C/c2ccc(-c4ccc(Cl)cc4)o2)S3)ccc1Cl
Result: > 50 µM

Q: And for CN1C/C(=C\c2cccs2)C(=O)/C(=C/c2cccs2)C1 ?
Result: > 100 µM

Q: Param item: Cc1cc(S(=O)(=O)Nc2n[nH]c(Nc3ccccc3)n2)c(SSc2cc(Cl)c(C)cc2S(=O)(=O)Nc2n[nH]c(Nc3ccccc3)n2)cc1Cl
Result: > 100 µM

Q: Also check C1CC[N-]CC1.CC(=N\O)/C(C)=N/O.CC(=N\O)/C(C)=N/O.C[CH-]C(C)O.[Co+2]
Result: 29 µM

Q: Moving on to the next molecule: Cc1cc2nc(-c3ccc(O)c(O)c3)n(Cc3ccc(O)c(O)c3)c2cc1C
Result: 41.1 µM

* * *

Give TGI for every item shown.
System: MALME-3M melanoma
Assay: NCI tumour cell line growth inhibition, 48 h

Q: Sample Nc1c(C(=O)O)nnc2cc(Cl)ccc12 — what was its TGI?
Result: > 100 µM

Q: Now consider CC1=C(SCCC(=O)OC(C[Se]C2=C(C)C(=O)c3ccccc3C2=O)C(=O)NC(C)(C)C)C(=O)c2ccccc2C1=O (stereo unspecified) .
Result: 3.89 µM

Q: Can you handle CN(C)Cc1cc(C(C)(C)C)cc(CN(C)C)c1O next?
Result: > 100 µM

Q: Also, O=C(Cn1c(=O)oc2ccc(C(=O)c3cccc(Cl)c3)cc21)c1ccccc1 please.
Result: > 100 µM

Q: Now this one: Cc1cc2nc(-c3ccc(O)c(O)c3)n(Cc3ccc(O)c(O)c3)c2cc1C
Result: > 100 µM

Q: Same question, COc1ccc(C2C3=C(COC3=O)N(CCO)c3cc4c(cc32)CCC4)cc1 (stereo unspecified) this time
Result: > 50 µM

Q: Further, for CCOC(=O)N(O)c1ccc(/C=C/c2ccccc2)cc1 ?
Result: 61.4 µM

Q: And what about the molecule COC(=O)C(C)Oc1ccc(O)cc1 (stereo unspecified) ?
Result: > 100 µM

Q: And what about the molecule CNc1nc(-c2ccc3c(N)n[nH]c3c2)cc(N2C[C@@H](C(=O)NC3CCCCC3)CC[C@H]2C)n1 ?
Result: 10.7 µM

Q: One more molecule: COC(=O)C#CC(N)=O
Result: 19.1 µM

Q: Try this molecule too: N#CC(C#N)C(c1ccccc1)c1ccccc1
Result: > 100 µM

* * *

Tested on: HL-60(TB) leukemia
Assay: NCI tumour cell line growth inhibition, 48 h; in the data active means GI50 below about 0.43 µM; inactive means the rest
Permitted responses: active, inactive

Q: Hi team, can someone confirm the assay call for CN(C)CCOc1ccc2c(c1)C(=O)/C(=C\c1ncc([N+](=O)[O-])n1C)C2 ?
Result: active

Q: Subsequent entry: COC(=O)c1cc(C)[nH]c2c(C)cc3nc4ccccc4c3c12
Result: inactive

Q: Would you kindly repeat that for CC(=O)[O][Hg][c]1s[c]([Hg][O]C(C)=O)[c]([Hg][O]C(C)=O)[c]1[Hg][O]C(C)=O ?
Result: inactive

Q: Request: COC(=O)[C@@H](C)C[C@H](Cc1ccccc1)NC(=O)c1csc([C@@H](C[C@H](C(C)C)N(C)C(=O)[C@@H](NC(=O)[C@H]2CCCCN2C)C(C(F)(F)F)C(F)(F)F)OC(C)=O)n1
Result: active

Q: What do you have for C=Cc1cc(OC)c2c(c1)c(=O)oc1c2cc(OC)c2c(O)ccc(C3OC(C(C)O)C(O)C3O)c21 (configuration not stated) ?
Result: active

Q: Now consider C[C@@H](C[C@H](CCO)c1ccccc1)c1ccc2ccccc2c1 .
Result: inactive

Q: For CC1=C(SCCC(=O)OC(C[Se]C2=C(C)C(=O)c3ccccc3C2=O)C(=O)NC(C)(C)C)C(=O)c2ccccc2C1=O (configuration not stated) then?
Result: inactive

Q: // next record CNC(=O)c1cc(-c2ccc(F)cc2)cc(-c2ccc(S(=O)(=O)N3CCCC3)cc2)c1N
Result: inactive

Q: Next record, please: CC(=O)/C(=C/N1CCN(C(=O)c2ccco2)C1=S)C(=O)c1ccccc1
Result: inactive

Q: Item: Cn1cc(-c2csc(-c3cn(C(=O)OC(C)(C)C)c4ccccc34)n2)c2cccnc21
Result: inactive

Q: Note, next up: Cc1c2ccccc2c(C)n2c1nc1cc(Cl)c(Cl)cc12
Result: inactive

Q: Likewise for N=C1C=C(N)C(=O)c2ccccc21 ?
Result: active

* * *

Please provide measured TGI for the entries that follow.
Tested on: HOP-92 NSCLC
Assay: NCI tumour cell line growth inhibition, 48 h

Q: Fill in the blank: the reported TGI of O=C(N/N=C/c1ccc(N(CCCl)CCCl)cc1)c1ccc(C(=O)N/N=C/c2ccc(N(CCCl)CCCl)cc2)cc1 is ____.
Result: 88.3 µM

Q: Request: CC(CC(=O)Nc1ccc(NC(=O)CC(C)N=NC(N)=O)cc1)N=NC(N)=O (stereo not given)
Result: > 100 µM

Q: // next record CCCCCCCCc1cc(O)ccc1O
Result: 21.1 µM

Q: Proceed to Fc1ccc2c(c1)nc1n2C(c2c(F)cccc2F)SC1 (stereo not given)
Result: > 100 µM

Q: What do you have for NS(=O)(=O)c1ccc(NCc2nc3ccccc3[nH]2)cc1 ?
Result: > 100 µM

Q: Cn1c2ccccc2c2c3c(c4c5ccccc5n(C)c4c21)C(=O)N(c1ccccc1)C3=O , same question.
Result: > 100 µM

Q: Check C/C(=N\Nc1n[nH]c(=S)n1N)c1c(O)cc(C)oc1=O too.
Result: > 100 µM

Q: Also CN1C/C(=C\c2cccs2)C(=O)/C(=C/c2cccs2)C1 , if possible.
Result: 67.3 µM

Q: What do you get for Nc1ccc(C(=O)O)cc1 ?
Result: > 100 µM

Q: Now give it for O=S(=O)(O)c1cc(N=[N+]([O-])c2ccc(N=Nc3ccccc3)cc2S(=O)(=O)O)ccc1/C=C/c1ccc(N=[N+]([O-])c2ccc(N=Nc3ccccc3)cc2S(=O)(=O)O)cc1S(=O)(=O)O too.
Result: > 100 µM

* * *

Please go through the items and note down their GI50.
System: SK-MEL-5 melanoma
Test: NCI tumour cell line growth inhibition, 48 h

Q: Requested field: GI50. Item: CS(=O)(=O)CCNCc1ccoc1-c1ccc2ncnc(Nc3ccc(OCc4ccccc4)cc3)c2c1
Result: 9.74 µM

Q: Also check O=S(=O)(Nc1ccc(Cl)c(Cl)c1)c1ccc(-c2cnc(C3CC3)o2)cc1
Result: 0.478 µM

Q: Again, but for O=C(/C=C/c1ccc(Cl)cc1Cl)c1ccc(Cl)cc1Cl
Result: 16.7 µM
